Test system: histamine release from basophils activated by ionophore A-23187
assay_remarks: Human basophil assay: inhibition of histamine release induced by non-immunological ionophore A-23187
Assay type: cell-based
study_conditions: 1000-fold test dosage range
endpoint_name: pIC50
Reminder that pIC50 is minus the log10 of a molar concentration.

Return reported pIC50; argument: Clc1ccc(CN2CCN(CCSSCCN3CCN(Cc4ccc(Cl)cc4)CC3)CC2)cc1 5.57

----------
System: histamine release from human leukocytes (basophils)
assay_remarks: Human basophil assay: inhibition of anti-IgE-induced (IgE-mediated) histamine release
Assay type: cell-based
study_conditions: Homo sapiens, Leukocyte; anti-IgE; further repetition of testing; read-out: IC50 (histamine release), further repetition
endpoint_name: pIC50
Give only the number. pIC50 is defined as minus log10 of concentration in molar units.

// pIC50 lookup, key: Clc1ccc(CN2CCN(CCSSCCN3CCN(Cc4ccc(Cl)cc4)CC3)CC2)cc1 [Example 2] 5.28

----------
Test system: histamine release from human leukocytes (basophils)
assay_remarks: Human basophil assay: inhibition of anti-IgE-induced (IgE-mediated) histamine release
Type: cell-based
study_conditions: Leukocyte, 1 h; human basophils, rabbit anti-human IgE, 37° C., 60 minutes; read-out: IN VITRO INHIBITION OF HISTAMINE RELEASE IC50
Experimental: In the experiments reported by this example compounds in accordance with the invention are evaluated to determine their ability to inhibit the IgE-mediated release of histamine from sensitized peripheral leucocytes (basophils). Separation of leukocytes is accomplished by a modification of the method of L. Lichtenstein and A. Osler, J. Exp. Med. 120: 507 (1964). […] Percent inhibition is calculated as follows: [formula] […]
Provide the reported pIC50 of each item.
Conceptually, pIC50 converts a concentration in mol/L into minus its log10.

Requested field: pIC50. Item: Clc1ccc(CN2CCN(CCCSSCCCN3CCN(Cc4ccc(Cl)cc4)CC3)CC2)cc1 5.70

# repeat for Cc1ccccc1CN1CCN(CCSSCCN2CCN(Cc3ccccc3C)CC2)CC1 4.82

Please do the same for Clc1ccc(CN2CCN(CCCSCCCN3CCN(Cc4ccc(Cl)cc4)CC3)CC2)cc1 as well. 5.72

Then what about the compound Clc1ccc(CN2CCN(CCCSCCN3CCN(Cc4ccc(Cl)cc4)CC3)CC2)cc1 ? 5.62

Same question, Clc1ccc(CN2CCN(CCSSCCN3CCN(Cc4ccc(Cl)cc4)CC3)CC2)cc1 this time 5.62

One more compound: O=S(=O)(CCCN1CCN(Cc2ccc(Cl)cc2)CC1)CCCN1CCN(Cc2ccc(Cl)cc2)CC1 5.47

Continue with Cc1ccc(CN2CCN(CCSSCCN3CCN(Cc4ccc(C)cc4)CC3)CC2)cc1 5.33

Do the same for c1ccc(CN2CCN(CCCSSCCCN3CCN(Cc4ccccc4)CC3)CC2)cc1 please 4.86

And then N#Cc1ccc(CN2CCN(CCSSCCN3CCN(Cc4ccc(C#N)cc4)CC3)CC2)cc1 , what is it? 4.55

# repeat for [O-][S+](CCCN1CCN(Cc2ccc(Cl)cc2)CC1)CCCN1CCN(Cc2ccc(Cl)cc2)CC1 5.25

----------
System: histamine release from human leukocytes (basophils)
assay_remarks: Human basophil assay: inhibition of anti-IgE-induced (IgE-mediated) histamine release
Assay type: cell-based
study_conditions: Leukocyte, 1 h; human basophils, rabbit anti-human IgE, 37° C., 60 minutes; read-out: IN VITRO INHIBITION OF HISTAMINE RELEASE IC50
Experimental: In the experiments reported by this example compounds in accordance with the invention are evaluated to determine their ability to inhibit the IgE-mediated release of histamine from sensitized peripheral leucocytes (basophils). Separation of leukocytes is accomplished by a modification of the method of L. Lichtenstein and A. Osler, J. Exp. Med. 120: 507 (1964). […] Percent inhibition is calculated as follows: [formula] […]
endpoint_name: IC50

Value lookup for IC50; key = Cl.Cl.Cl.Cl.Clc1ccc(CCN2CCN(CCCSSCCCN3CCN(CCc4ccc(Cl)cc4)CC3)CC2)cc1 [Example 10] > 1000 µM

Repeat for the following molecule: Cl.Cl.Cl.Cl.Clc1ccc(CCCN2CCN(CCSSCCN3CCN(CCCc4ccc(Cl)cc4)CC3)CC2)cc1 [Example 13] > 1000 µM

Also Clc1ccc(CN2CCCN(CCCSSCCCN3CCCN(Cc4ccc(Cl)cc4)CC3)CC2)cc1 [Example 11] ? > 1000 µM
